Reference source: patent US4849425A

EXPERIMENT_DESCRIPTION: Oral capsules, plasma concentration in beagle dogs (Test Example 7)
Assay type: in vivo
ASSAY_CONDITIONS: dog, plasma, po, 20 mg/kg, polyethylene glycol 400 capsules of Example 3, oral 20 mg/kg, 2 hrs
Method: The capsules prepared in Example 3 corresponding to 20 mg/kg of Compound No. 3 were orally administered to three beagle dogs (male: body weight: 5 kg). Then, the blood was periodically sampled from the branchium vein, and the concentration of Compound No. 3 in the plasma was measured. To the control group, a suspension of Compound No. 3 (20 mg/ml) in an aqueous solution containing 0.5% of sodium salt of carboxymethyl cellulose was administered. […]
MEASURED_PROPERTY: concentration at 2 h (ng/mL)

ITEM_SMILES	MEASURED_PROPERTY	READOUT_NUMBER
O=C(NC(=O)c1ccccc1[N+](=O)[O-])Nc1ccc(Oc2ncc(Br)cn2)c(Cl)c1	concentration at 2 h	1120
